- Tested on: Serratia
- TEST: Antimicrobial activity against Serratia 2852 by agar dilution method
- Format: functional
Reported MIC is given for each of the following molecules.

Previously resolved entries follow.
{"MOLECULE": "Cn1nnnc1SCC1=C(C(=O)O)N2C(=O)[C@@H](NC(=O)[C@H](O)c3ccccc3)[C@H]2OC1 (racemic)", "RESULT": "> 100 µg/mL"}
{"MOLECULE": "Cn1nnnc1SCC1=C(C(=O)O)N2C(=O)[C@@H](NC(=O)[C@H](O)c3ccccc3)[C@H]2SC1", "RESULT": "> 100 µg/mL"}

Record summary for Cn1nnnc1SCC1=C(C(=O)O)N2C(=O)[C@@H](NC(=O)C(O)c3ccccc3)[C@H]2CC1 (mixture of isomers) : reported MIC = > 100 µg/mL

Reference source for all entries: ChEMBL document CHEMBL3244022
